Kindly state logP for each of the entries shown.
# Protocol Details: Octanol-water partition coefficient, log KOW of the compound
# Assay type: physicochemical
# Setup Conditions: read-out: log K
Answers are plain numbers.

Any idea what logP was measured for COC(=O)c1cncn1C(C)c1ccccc1 (stereo not given) [METOMIDATE] ? 2.28

Any idea what logP was measured for CCOC(=O)c1cncn1[C@H](C)c1ccccc1 [ETOMIDATE] ? 2.89

Any idea what logP was measured for CC(c1ccccc1)n1cncc1CO (stereo not given) ? 1.28

Count: 2. Required value per item: logP.
1. CC(c1ccccc1)n1cncc1C(=O)N=[N+]=[N-] (stereo not given)
2. CC(c1ccccc1)n1cncc1C=O (stereo not given)

2.71
1.77
